Reference source for all entries: patent US20040229298A1

- tested_system: GST-DLG3 PDZ domains 1-2 (human), Q92796
- Sequence (Q92796 other isoform, or with tags, fused parts or gaps limits assumed): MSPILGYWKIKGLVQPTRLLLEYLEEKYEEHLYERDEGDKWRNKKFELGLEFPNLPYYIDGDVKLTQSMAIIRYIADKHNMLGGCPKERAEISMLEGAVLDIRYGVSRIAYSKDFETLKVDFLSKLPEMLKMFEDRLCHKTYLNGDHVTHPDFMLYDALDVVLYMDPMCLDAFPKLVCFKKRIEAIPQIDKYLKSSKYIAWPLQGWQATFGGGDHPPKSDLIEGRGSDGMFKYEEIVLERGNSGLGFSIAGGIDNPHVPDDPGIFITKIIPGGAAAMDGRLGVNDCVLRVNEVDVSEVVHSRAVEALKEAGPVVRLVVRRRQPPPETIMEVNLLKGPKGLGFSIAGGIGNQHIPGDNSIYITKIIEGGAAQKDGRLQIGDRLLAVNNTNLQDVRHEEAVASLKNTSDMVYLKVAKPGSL
- procedure_details: Matrix/G assay ELISA, E6 peptide titrated on GST-PDZ
Ends that are not written are not given here.
endpoint_name: EC50 (µM)
# output: bare number, implied unit µM

Fill in: EC50 of WTGRCMSCCRSSRTRRETQL (not fully specified; cysteine pairing not given here) [HPV16 E6 C-terminal PDZ ligand peptide (20 mer, biotinylated), P03126 139-158] is ___
3.8
